Test system: Human airway smooth muscle (HASM) cells
Measurement protocol: Thrombin-induced proliferation of human airway smooth muscle (HASM) cells, cell number after 48 h
Assay type: cell-based
Condition details: two site model, second phase (inhibition up to 100%); thrombin-induced proliferation
Recorded HASM- Thr pIC75 by entry
Property name: HASM- Thr pIC75

>>> df
                                   molecule    property_name  measured_value
0  COc1ccc(CO/N=C2\CC[C@H]3[C@@H]4CCc5cc(O)ccc5[C@H]4CC[C@]23C)cc1  HASM- Thr pIC75            5.03
1  COc1cc2c(cc1O)/C(=N/OCc1ccc(OC(F)(F)F)cc1)C[C@@H]1[C@@H]2CC[C@]2(C)/C(=N/O)CC[C@@H]12  HASM- Thr pIC75            5.00
2  C[C@]12CC[C@@H]3c4ccc(O)cc4CC[C@H]3[C@@H]1CC/C2=N\OCc1ccc([N+](=O)[O-])cc1  HASM- Thr pIC75            5.06
3  COc1cc2c(cc1O)CC[C@@H]1[C@@H]2CC[C@]2(C)/C(=N/OCc3cccc([N+](=O)[O-])c3)CC[C@@H]12  HASM- Thr pIC75            5.02
4  COc1cc2c(cc1O)CC[C@@H]1[C@@H]2CC[C@]2(C)[C@@H](O)CC[C@@H]12 [2-methoxyestradiol, reference compound]  HASM- Thr pIC75            4.98
5  COc1ccc(CO/N=C2\C[C@@H]3[C@H](CC[C@]4(C)/C(=N/O)CC[C@@H]34)c3cc(OC)c(O)cc32)cc1  HASM- Thr pIC75            4.94

The measurements presented in this section are drawn from patent US20070275935A1.
